Molecular target: UniProtKB P29990
Sequence (P29990 2492-3391 limits assumed): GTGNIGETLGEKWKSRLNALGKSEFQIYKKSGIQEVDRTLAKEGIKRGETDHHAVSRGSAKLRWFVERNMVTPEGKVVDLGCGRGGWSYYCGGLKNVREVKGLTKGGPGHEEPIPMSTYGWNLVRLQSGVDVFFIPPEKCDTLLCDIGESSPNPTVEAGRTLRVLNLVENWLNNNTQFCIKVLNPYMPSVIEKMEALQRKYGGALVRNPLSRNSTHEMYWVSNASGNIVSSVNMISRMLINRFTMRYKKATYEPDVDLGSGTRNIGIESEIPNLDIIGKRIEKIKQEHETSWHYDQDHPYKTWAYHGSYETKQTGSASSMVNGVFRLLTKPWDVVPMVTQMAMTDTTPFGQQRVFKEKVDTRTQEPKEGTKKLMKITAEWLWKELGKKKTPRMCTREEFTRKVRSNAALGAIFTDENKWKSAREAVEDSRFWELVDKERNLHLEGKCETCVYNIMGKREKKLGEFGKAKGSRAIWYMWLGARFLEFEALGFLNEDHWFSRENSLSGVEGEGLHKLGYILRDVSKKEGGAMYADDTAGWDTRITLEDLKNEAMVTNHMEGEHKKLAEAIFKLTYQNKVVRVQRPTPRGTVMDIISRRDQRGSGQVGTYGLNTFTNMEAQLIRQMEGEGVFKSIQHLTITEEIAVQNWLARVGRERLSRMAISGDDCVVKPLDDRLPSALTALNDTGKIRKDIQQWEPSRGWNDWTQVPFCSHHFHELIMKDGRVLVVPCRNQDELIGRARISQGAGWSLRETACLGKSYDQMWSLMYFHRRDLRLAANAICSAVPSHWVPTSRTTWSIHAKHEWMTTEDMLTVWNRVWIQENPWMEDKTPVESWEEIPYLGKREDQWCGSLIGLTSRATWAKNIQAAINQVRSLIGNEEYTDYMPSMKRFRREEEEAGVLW
Test: flavivirus cap methylation enzyme inhibition – biochemical, confirmation dose response, primary screen (AID 588689)
Type: functional
Active and inactive are the calls of the source.
Each item that follows carries a reported IC50.

compound=COc1cc(/C=C2\SC(=S)N(CCCCC(=O)O)C2=O)ccc1OS(=O)(=O)c1ccc(C)cc1 result="39.8 µM (active)"
compound=O=C1/C(=C/c2ccc(C(=O)O)cc2)CCC/C1=C\c1ccc(C(=O)O)cc1 result="> 100 µM (active)"

Shift focus to the following entry.
Q: Supply reported IC50 belonging to this compound: COc1cc(C2C(C#N)=C(N)OC3=C2C(=O)CC(C)(C)C3)c([N+](=O)[O-])cc1OC (centres undefined)
Ans: > 100 µM (active)

====

Target: SUMO-activating enzyme (Homo sapiens)
Sequence (Q9UBE0 whole entry): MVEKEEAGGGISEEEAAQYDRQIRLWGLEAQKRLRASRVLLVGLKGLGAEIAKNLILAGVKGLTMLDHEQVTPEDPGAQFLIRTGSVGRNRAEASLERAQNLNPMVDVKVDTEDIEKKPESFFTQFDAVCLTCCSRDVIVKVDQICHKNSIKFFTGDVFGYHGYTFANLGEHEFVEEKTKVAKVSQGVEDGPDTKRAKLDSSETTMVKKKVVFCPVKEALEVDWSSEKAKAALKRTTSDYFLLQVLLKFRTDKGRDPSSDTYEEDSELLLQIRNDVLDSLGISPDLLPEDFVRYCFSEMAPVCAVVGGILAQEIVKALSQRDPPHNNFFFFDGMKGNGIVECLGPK
Sequence (Q9UBT2 whole entry): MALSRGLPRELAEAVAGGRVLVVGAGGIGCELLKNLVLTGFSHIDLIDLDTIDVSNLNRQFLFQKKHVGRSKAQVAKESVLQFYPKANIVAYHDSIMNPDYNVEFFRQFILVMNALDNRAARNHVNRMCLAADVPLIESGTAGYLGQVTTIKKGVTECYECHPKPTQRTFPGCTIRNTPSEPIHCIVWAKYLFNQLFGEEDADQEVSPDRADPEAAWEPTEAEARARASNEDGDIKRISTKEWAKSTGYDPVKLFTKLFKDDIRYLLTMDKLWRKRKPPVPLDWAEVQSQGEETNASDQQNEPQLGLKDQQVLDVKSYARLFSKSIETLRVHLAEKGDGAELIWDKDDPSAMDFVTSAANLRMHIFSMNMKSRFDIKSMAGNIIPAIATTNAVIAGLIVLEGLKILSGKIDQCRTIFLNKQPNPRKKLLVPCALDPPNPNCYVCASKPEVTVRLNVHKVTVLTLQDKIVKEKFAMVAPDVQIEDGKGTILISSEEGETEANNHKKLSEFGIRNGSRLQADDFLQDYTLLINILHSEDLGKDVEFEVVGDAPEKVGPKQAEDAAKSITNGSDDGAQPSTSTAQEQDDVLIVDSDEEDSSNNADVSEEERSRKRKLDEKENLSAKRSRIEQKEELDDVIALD
Test: blockers of UBC9-mediated SUMO conjugation – biochemical, AlphaScreen, SUMOylation inhibitor project, confirmation (AID 2018)
Assay type: functional
The source made the active and inactive calls.
Measurement Label: IC50

# example entries with known answers
compound=CCN(CC)c1ccc(NC(=O)CSc2nc(C3CC3)nc3ccccc23)cc1C result="7.43 µM (active)"
compound=COc1ccc(C(=O)Nc2ccc(-c3nnn(CC(=O)N4CCN(C(=O)c5ccco5)CC4)n3)cc2)cc1 result="13 µM (active)"
compound="O=C(O)c1ccc(NS(=O)(=O)c2ccc3c(c2)C2C=CCC2C(c2ccccc2F)N3)cc1 (centres undefined)" result="4.63 µM (active)"

Shift focus to the following entry.
Q: Supply reported IC50 belonging to this compound: Cc1ccc(NC(=O)CN2C(=O)S/C(=C\c3ccc(-c4cccc(C(=O)O)c4C)o3)C2=O)cc1C
Ans: 6.11 µM (active)

====

Molecular target: DNA repair and recombination protein RAD54-like (Homo sapiens)
Sequence (Q92698 whole entry): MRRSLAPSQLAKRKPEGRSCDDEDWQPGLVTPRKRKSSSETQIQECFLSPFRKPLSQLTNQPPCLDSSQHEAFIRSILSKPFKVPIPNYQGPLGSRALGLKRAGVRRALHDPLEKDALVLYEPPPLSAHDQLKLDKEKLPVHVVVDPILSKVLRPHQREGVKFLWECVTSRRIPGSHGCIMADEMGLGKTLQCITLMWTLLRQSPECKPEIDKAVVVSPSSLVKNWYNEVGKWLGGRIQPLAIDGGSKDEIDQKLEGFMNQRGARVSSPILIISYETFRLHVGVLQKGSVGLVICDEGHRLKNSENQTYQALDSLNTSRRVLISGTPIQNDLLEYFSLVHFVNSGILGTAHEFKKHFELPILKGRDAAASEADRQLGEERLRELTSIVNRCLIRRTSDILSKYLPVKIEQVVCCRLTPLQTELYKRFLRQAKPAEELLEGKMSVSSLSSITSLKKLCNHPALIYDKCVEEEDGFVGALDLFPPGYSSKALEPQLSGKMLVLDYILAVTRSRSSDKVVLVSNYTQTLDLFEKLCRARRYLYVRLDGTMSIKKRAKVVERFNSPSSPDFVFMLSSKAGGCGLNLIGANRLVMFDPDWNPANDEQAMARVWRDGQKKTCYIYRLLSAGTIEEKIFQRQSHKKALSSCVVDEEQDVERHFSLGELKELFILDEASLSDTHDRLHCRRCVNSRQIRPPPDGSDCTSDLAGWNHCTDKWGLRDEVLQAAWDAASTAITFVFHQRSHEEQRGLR
Experiment: RAD54 Holliday junction migration blockers – biochemical, fluorescence, cherry-picked samples, dose series, confirmation (AID 651657)
Type: functional
Calls of active or inactive are those of the source.
Hello, when you answer, please use one of the following outcomes: active, inactive

Previously resolved entries follow.
record_smiles=COc1ccc(Nc2nc(N3CCCCC3)nc3ccccc23)c(OC)c1 assigned_label=active
record_smiles=C=CC(=O)Nc1ccc(N(C)c2ccnc(Nc3ccc(N4CCN(C)CC4)cc3)n2)cc1 assigned_label=active
record_smiles=CN(C)CCCNc1nc(-c2ccccc2)nc2ccccc12 assigned_label=active
record_smiles=Cc1cccn2c(=O)c3cc(C#N)c(=O)n(CCCN4CCOCC4)c3nc12 assigned_label=active

Consider the additional compound presented here.
Q: So what was the verdict on CN1CCc2[nH]c3ccc(C(=O)NN)cc3c2C1 in this test?
Ans: inactive
